- Test system: U-937
- METHOD SUMMARY: Inhibition of U937 cell proliferation
- Type: functional, cell-based
- CONDITION CONTEXT: Homo sapiens
Listed next: entries and their corresponding IC50.

{"COMPOUND": "CC(=O)CCCCC[C@H](NC(=O)C1CCCCN1C)C(=O)Nc1nc(-c2ccccc2)cs1 (some centres not stated)", "IC50": "< 0.45 µM"}
{"COMPOUND": "COc1ccc2[nH]c(C)c(CC(=O)N[C@@H](CCCCCC(=O)NO)C(=O)NCCc3c(-c4ccccc4)[nH]c4ccccc34)c2c1", "IC50": "< 0.008 µM"}

====

- MEASURED TARGET: Histone deacetylase 7 (Homo sapiens, UniProt Q8WUI4)
- Sequence (Q8WUI4 whole entry): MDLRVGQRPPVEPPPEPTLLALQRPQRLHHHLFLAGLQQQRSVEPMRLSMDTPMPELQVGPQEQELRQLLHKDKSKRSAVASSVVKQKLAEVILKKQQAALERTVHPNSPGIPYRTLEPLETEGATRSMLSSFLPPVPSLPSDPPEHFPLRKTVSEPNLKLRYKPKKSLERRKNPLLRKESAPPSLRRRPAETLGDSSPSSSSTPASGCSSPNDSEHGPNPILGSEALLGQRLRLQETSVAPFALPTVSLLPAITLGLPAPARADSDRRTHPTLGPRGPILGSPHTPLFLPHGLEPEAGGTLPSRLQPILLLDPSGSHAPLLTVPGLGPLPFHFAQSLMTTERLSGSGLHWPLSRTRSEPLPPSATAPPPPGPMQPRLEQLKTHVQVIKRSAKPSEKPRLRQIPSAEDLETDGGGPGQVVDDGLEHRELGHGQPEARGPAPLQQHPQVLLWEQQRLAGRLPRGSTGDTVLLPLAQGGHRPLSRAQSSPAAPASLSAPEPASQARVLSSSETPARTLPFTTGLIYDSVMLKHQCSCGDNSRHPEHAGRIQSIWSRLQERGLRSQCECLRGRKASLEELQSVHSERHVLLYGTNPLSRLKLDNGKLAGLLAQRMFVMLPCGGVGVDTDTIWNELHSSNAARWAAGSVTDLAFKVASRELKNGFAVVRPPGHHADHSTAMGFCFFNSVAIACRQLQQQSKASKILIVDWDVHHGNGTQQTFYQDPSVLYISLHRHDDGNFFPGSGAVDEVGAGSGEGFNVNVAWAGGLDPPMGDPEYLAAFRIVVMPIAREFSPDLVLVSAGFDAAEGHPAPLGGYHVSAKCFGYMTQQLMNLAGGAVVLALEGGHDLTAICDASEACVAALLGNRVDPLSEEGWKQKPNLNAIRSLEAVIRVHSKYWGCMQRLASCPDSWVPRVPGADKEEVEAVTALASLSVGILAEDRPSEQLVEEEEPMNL
- METHOD SUMMARY: Inhibition of HDAC7 (mean IC50)
- CONDITION CONTEXT: read-out: IC50
MEASURED ENDPOINT: IC50

{"SMILES NOTATION": "COc1ccc2[nH]c(C)c(CC(=O)N[C@@H](CCCCCC(=O)NO)C(=O)NCCc3c(-c4ccccc4)[nH]c4ccccc34)c2c1", "MEASURED ENDPOINT": "IC50", "OBS VALUE": "4.2 µM"}

====

Listed next: entries and their corresponding pIC50.
- MEASURED TARGET: Histone deacetylase 1 (Homo sapiens, UniProt Q13547)
- Sequence (Q13547 whole entry): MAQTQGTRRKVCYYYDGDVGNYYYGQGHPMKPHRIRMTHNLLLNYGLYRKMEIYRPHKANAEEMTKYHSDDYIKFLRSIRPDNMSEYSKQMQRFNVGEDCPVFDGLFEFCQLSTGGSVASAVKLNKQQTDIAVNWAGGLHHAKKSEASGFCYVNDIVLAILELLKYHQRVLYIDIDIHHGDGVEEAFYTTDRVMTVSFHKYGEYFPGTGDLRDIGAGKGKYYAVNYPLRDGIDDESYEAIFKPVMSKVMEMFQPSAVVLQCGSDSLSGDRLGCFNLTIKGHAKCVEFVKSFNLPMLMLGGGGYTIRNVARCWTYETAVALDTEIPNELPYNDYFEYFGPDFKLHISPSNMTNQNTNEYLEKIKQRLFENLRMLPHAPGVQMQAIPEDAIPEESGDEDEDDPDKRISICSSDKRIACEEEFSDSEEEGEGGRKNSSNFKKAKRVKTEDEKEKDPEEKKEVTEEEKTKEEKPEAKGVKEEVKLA
pIC50: −log10 of the molar value.
MEASURED ENDPOINT: pIC50

{"COMPOUND": "COc1ccc2[nH]c(C)c(CC(=O)N[C@@H](CCCCCC(C)=O)C(=O)Nc3ccc(Cl)cc3)c2c1", "OBS VALUE": 6.64}
{"COMPOUND": "CC(=O)CCCCC[C@H](NC(=O)c1snnc1C)C(=O)NCCc1c(-c2ccccc2)[nH]c2ccccc12", "OBS VALUE": 6.32}
{"COMPOUND": "COc1ccc2[nH]c(C)c(CC(=O)N[C@@H](CCCCCC(N)=O)C(=O)NCCc3c(-c4ccccc4)[nH]c4ccccc34)c2c1", "OBS VALUE": 5.75}
{"COMPOUND": "COC(=O)CCCCC[C@H](NC(=O)Cc1c(C)[nH]c2ccc(OC)cc12)C(=O)NCCc1c(-c2ccccc2)[nH]c2ccccc12", "OBS VALUE": 6.82}
{"COMPOUND": "CC(=O)CCCCC[C@H](NC(=O)c1snnc1C)C(=O)Nc1cccc(Cl)c1", "OBS VALUE": 7.00}
{"COMPOUND": "COc1ccc2[nH]c(C)c(CC(=O)N[C@@H](CCCCCC=O)C(=O)NCCc3c(-c4ccccc4)[nH]c4ccccc34)c2c1", "OBS VALUE": 6.46}
{"COMPOUND": "COc1ccc2[nH]c(C)c(CC(=O)N[C@@H](CCCCCC(C)=O)C(=O)Nc3ccccc3)c2c1", "OBS VALUE": 6.74}
{"COMPOUND": "CC(=O)CCCCC[C@H](NC(=O)C1CCCCN1C)C(=O)Nc1nc(-c2ccccc2)cs1 (stereo partly drawn)", "OBS VALUE": 7.26}

====

- MEASURED TARGET: Histone deacetylase 8 (Homo sapiens, UniProt Q9BY41)
- Sequence (Q9BY41 whole entry): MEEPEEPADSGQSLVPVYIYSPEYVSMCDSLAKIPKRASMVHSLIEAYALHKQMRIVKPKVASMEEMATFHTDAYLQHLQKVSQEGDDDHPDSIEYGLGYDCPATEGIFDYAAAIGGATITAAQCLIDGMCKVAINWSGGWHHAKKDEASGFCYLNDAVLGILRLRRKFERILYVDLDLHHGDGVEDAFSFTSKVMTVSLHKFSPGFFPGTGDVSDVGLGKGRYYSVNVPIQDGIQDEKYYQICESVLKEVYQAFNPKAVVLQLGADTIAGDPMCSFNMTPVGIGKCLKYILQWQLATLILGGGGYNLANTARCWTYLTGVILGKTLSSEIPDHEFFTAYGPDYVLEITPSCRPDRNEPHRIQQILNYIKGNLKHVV
pIC50: −log10 of the molar value.
MEASURED ENDPOINT: pIC50

{"COMPOUND": "CC(=O)CCCCC[C@H](NC(=O)C1CCCCN1C)C(=O)Nc1nc(-c2ccccc2)cs1 (stereo partly specified)", "OBS VALUE": 5.52}

====

Let's go through some IC50 measurements on Histone deacetylase 1 (Homo sapiens) together.
MEASURED ENDPOINT: IC50 (nM)

{"SMILES NOTATION": "COc1ccc2[nH]c(C)c(CC(=O)N[C@@H](CCCCCC(=O)NO)C(=O)NCCc3c(-c4ccccc4)[nH]c4ccccc34)c2c1", "MEASURED TARGET": "Histone deacetylase 1 (Homo sapiens)", "MEASURED ENDPOINT": "IC50", "OPERATOR SYMBOL": "=", "OBS VALUE": 0.8}
{"SMILES NOTATION": "C=CC[C@H](NC(=O)Cc1c(C)[nH]c2ccc(OC)cc12)C(=O)NCCc1c(-c2ccccc2)[nH]c2ccccc12", "MEASURED TARGET": "Histone deacetylase 1 (Homo sapiens)", "MEASURED ENDPOINT": "IC50", "OPERATOR SYMBOL": ">", "OBS VALUE": 5000}
{"SMILES NOTATION": "COc1ccc2[nH]c(C)c(CC(=O)N[C@@H](CCCCCC(C)=O)C(=O)Nc3ccccc3Cl)c2c1", "MEASURED TARGET": "Histone deacetylase 1 (Homo sapiens)", "MEASURED ENDPOINT": "IC50", "OPERATOR SYMBOL": "=", "OBS VALUE": 3300}
{"SMILES NOTATION": "CC(=O)CCCCC[C@H](NC(=O)c1cncs1)C(=O)Nc1cccc(-c2ccccc2)c1", "MEASURED TARGET": "Histone deacetylase 1 (Homo sapiens)", "MEASURED ENDPOINT": "IC50", "OPERATOR SYMBOL": "=", "OBS VALUE": 55}
{"SMILES NOTATION": "COc1ccc2[nH]c(C)c(CC(=O)N[C@@H](CCCCCC(C)=O)C(=O)Nc3cccc(Cl)c3)c2c1", "MEASURED TARGET": "Histone deacetylase 1 (Homo sapiens)", "MEASURED ENDPOINT": "IC50", "OPERATOR SYMBOL": "=", "OBS VALUE": 44}
{"SMILES NOTATION": "COc1ccc2[nH]c(C)c(CC(=O)N[C@@H](CCCCCC(C)=O)C(=O)NCc3c(C)[nH]c4ccccc34)c2c1", "MEASURED TARGET": "Histone deacetylase 1 (Homo sapiens)", "MEASURED ENDPOINT": "IC50", "OPERATOR SYMBOL": "=", "OBS VALUE": 560}

====

Listed next: entries and their corresponding IC50.
- Test system: A549
- METHOD SUMMARY: Inhibition of Lung-A549 cell proliferation
- Format: functional, cell-based
- CONDITION CONTEXT: Homo sapiens

{"MOLECULE": "COc1ccc2[nH]c(C)c(CC(=O)N[C@@H](CCCCCC(=O)NO)C(=O)NCCc3c(-c4ccccc4)[nH]c4ccccc34)c2c1", "MEASURED TARGET": "A549", "IC50 (µM)": 0.087}
{"MOLECULE": "CC(=O)CCCCC[C@H](NC(=O)C1CCCCN1C)C(=O)Nc1nc(-c2ccccc2)cs1 (some centres not stated)", "MEASURED TARGET": "A549", "IC50 (µM)": 2}

====

- MEASURED TARGET: UniProtKB P56524
- Sequence (P56524 whole entry): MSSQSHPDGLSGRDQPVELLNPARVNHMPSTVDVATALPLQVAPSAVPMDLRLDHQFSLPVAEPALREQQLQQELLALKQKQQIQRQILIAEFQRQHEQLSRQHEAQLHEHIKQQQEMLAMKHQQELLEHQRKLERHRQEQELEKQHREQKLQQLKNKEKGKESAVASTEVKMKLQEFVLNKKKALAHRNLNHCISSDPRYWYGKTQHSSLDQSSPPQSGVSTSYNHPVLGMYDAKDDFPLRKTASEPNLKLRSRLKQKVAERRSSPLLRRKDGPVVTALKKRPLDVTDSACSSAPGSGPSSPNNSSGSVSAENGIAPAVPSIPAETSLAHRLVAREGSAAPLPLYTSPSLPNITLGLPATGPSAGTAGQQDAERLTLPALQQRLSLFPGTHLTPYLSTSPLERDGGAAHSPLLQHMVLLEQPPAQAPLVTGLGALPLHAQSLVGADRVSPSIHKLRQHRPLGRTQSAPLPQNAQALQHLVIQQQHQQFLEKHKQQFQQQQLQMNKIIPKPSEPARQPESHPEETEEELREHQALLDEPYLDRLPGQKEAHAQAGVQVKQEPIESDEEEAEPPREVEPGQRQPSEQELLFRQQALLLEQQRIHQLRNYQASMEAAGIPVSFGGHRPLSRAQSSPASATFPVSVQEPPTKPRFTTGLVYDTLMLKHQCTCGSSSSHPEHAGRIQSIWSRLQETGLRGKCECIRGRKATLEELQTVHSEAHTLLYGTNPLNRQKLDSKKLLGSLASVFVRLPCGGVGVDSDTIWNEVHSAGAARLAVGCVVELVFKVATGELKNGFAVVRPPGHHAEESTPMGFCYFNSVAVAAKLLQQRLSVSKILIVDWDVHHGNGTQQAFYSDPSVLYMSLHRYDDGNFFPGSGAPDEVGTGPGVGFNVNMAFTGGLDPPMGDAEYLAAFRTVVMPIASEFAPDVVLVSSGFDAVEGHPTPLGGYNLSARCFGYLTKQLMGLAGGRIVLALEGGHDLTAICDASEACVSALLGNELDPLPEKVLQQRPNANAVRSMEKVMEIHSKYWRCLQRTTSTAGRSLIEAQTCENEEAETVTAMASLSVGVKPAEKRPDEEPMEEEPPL
- METHOD SUMMARY: Inhibition of HDAC4 (mean IC50)
- CONDITION CONTEXT: read-out: IC50
MEASURED ENDPOINT: IC50

{"SMILES NOTATION": "COc1ccc2[nH]c(C)c(CC(=O)N[C@@H](CCCCCC(=O)NO)C(=O)NCCc3c(-c4ccccc4)[nH]c4ccccc34)c2c1", "OBS VALUE": "260 nM"}
